Test: 8-day repeat-dose study, tolerability (blood chemistry, hematology, adverse events) in tumor-bearing dogs
Format: in vivo, dog
Details: Dog 4; Post: 30 min after last injection on day 8; 10 mg s.c. once daily for 8 days
Where a SMILES comes first, the peptide text is derived from it. [ ]: non-standard residue; d: D form. Hyp = O=C(O)[C@@H]1C[C@@H](O)CN1
QUANTITY_KIND: MCH (pg)
Numbers only here, please. The scale is pg.

Field MCH (entry CC(C)[C@@H]1NC(=O)[C@@H]2C[C@@H](O)CN2C(=O)[C@H]([C@@H](C)O)NC(=O)[C@H](CCCCN)NC(=O)[C@H](CCC(=O)O)NC(=O)[C@H](CC(N)=O)NC(=O)CNC(=O)[C@@H]2C[C@@H](O)CN2C(=O)[C@H](CC(N)=O)NC1=O [AFPep] (cyclo(EKT[Hyp]VN[Hyp]GN)) ) reads 23

----------
Assay: 8-day repeat-dose study, tolerability (blood chemistry, hematology, adverse events) in tumor-bearing dogs
Type: in vivo, dog
Conditions: Dog 1; Post: 30 min after last injection on day 8; 10 mg s.c. once daily for 8 days
Where a SMILES comes first, the peptide text is derived from it. [ ]: non-standard residue; d: D form. Hyp = O=C(O)[C@@H]1C[C@@H](O)CN1
QUANTITY_KIND: WBC

Field WBC (entry CC(C)[C@@H]1NC(=O)[C@@H]2C[C@@H](O)CN2C(=O)[C@H]([C@@H](C)O)NC(=O)[C@H](CCCCN)NC(=O)[C@H](CCC(=O)O)NC(=O)[C@H](CC(N)=O)NC(=O)CNC(=O)[C@@H]2C[C@@H](O)CN2C(=O)[C@H](CC(N)=O)NC1=O [AFPep] (cyclo(EKT[Hyp]VN[Hyp]GN)) ) reads 18 10^3/µL

----------
Test: 8-day repeat-dose study, tolerability (blood chemistry, hematology, adverse events) in tumor-bearing dogs
Type: in vivo, dog
Details: Dog 1; Post: 30 min after last injection on day 8; 10 mg s.c. once daily for 8 days
Where a SMILES comes first, the peptide text is derived from it. [ ]: non-standard residue; d: D form. Hyp = O=C(O)[C@@H]1C[C@@H](O)CN1
QUANTITY_KIND: Creatine Kinase (U/L)
Numbers only here, please. The scale is U/L.

Field Creatine Kinase (entry CC(C)[C@@H]1NC(=O)[C@@H]2C[C@@H](O)CN2C(=O)[C@H]([C@@H](C)O)NC(=O)[C@H](CCCCN)NC(=O)[C@H](CCC(=O)O)NC(=O)[C@H](CC(N)=O)NC(=O)CNC(=O)[C@@H]2C[C@@H](O)CN2C(=O)[C@H](CC(N)=O)NC1=O [AFPep] (cyclo(EKT[Hyp]VN[Hyp]GN)) ) reads 120

----------
Assay: 8-day repeat-dose study, tolerability (blood chemistry, hematology, adverse events) in tumor-bearing dogs
Assay type: in vivo, dog
Conditions: Dog 3; Post: 30 min after last injection on day 8; 10 mg s.c. once daily for 8 days
Where a SMILES comes first, the peptide text is derived from it. [ ]: non-standard residue; d: D form. Hyp = O=C(O)[C@@H]1C[C@@H](O)CN1
QUANTITY_KIND: GGT (U/L)
Numbers only here, please. The scale is U/L.

Field GGT (entry CC(C)[C@@H]1NC(=O)[C@@H]2C[C@@H](O)CN2C(=O)[C@H]([C@@H](C)O)NC(=O)[C@H](CCCCN)NC(=O)[C@H](CCC(=O)O)NC(=O)[C@H](CC(N)=O)NC(=O)CNC(=O)[C@@H]2C[C@@H](O)CN2C(=O)[C@H](CC(N)=O)NC1=O [AFPep] (cyclo(EKT[Hyp]VN[Hyp]GN)) ) reads 4

----------
Assay: Pharmacokinetics in mice
Type: in vivo
Settings: mouse, in vivo, iv, 4 mg/kg
Where a SMILES comes first, the peptide text is derived from it. [ ]: non-standard residue; d: D form. Hyp = O=C(O)[C@@H]1C[C@@H](O)CN1
QUANTITY_KIND: half-life (min)
Numbers only here, please. The scale is min.

Field half-life (entry CC(C)[C@@H]1NC(=O)[C@@H]2C[C@@H](O)CN2C(=O)[C@H]([C@@H](C)O)NC(=O)[C@H](CCCCN)NC(=O)[C@H](CCC(=O)O)NC(=O)[C@H](CC(N)=O)NC(=O)CNC(=O)[C@@H]2C[C@@H](O)CN2C(=O)[C@H](CC(N)=O)NC1=O [AFPep] (cyclo(EKT[Hyp]VN[Hyp]GN)) ) reads 11

----------
Test: 8-day repeat-dose study, tolerability (blood chemistry, hematology, adverse events) in tumor-bearing dogs
Format: in vivo, dog
Details: Dog 6; Post: 30 min after last injection on day 8; 10 mg s.c. once daily for 8 days
Where a SMILES comes first, the peptide text is derived from it. [ ]: non-standard residue; d: D form. Hyp = O=C(O)[C@@H]1C[C@@H](O)CN1
QUANTITY_KIND: Cholesterol (mg/dL)
Numbers only here, please. The scale is mg/dL.

Field Cholesterol (entry CC(C)[C@@H]1NC(=O)[C@@H]2C[C@@H](O)CN2C(=O)[C@H]([C@@H](C)O)NC(=O)[C@H](CCCCN)NC(=O)[C@H](CCC(=O)O)NC(=O)[C@H](CC(N)=O)NC(=O)CNC(=O)[C@@H]2C[C@@H](O)CN2C(=O)[C@H](CC(N)=O)NC1=O [AFPep] (cyclo(EKT[Hyp]VN[Hyp]GN)) ) reads 198

----------
Experiment: 8-day repeat-dose study, tolerability (blood chemistry, hematology, adverse events) in tumor-bearing dogs
Assay type: in vivo, dog
Settings: Dog 5; Post: 30 min after last injection on day 8; 10 mg s.c. once daily for 8 days
Where a SMILES comes first, the peptide text is derived from it. [ ]: non-standard residue; d: D form. Hyp = O=C(O)[C@@H]1C[C@@H](O)CN1
QUANTITY_KIND: Bicarbonate (mmol/L)
Numbers only here, please. The scale is mmol/L.

Field Bicarbonate (entry CC(C)[C@@H]1NC(=O)[C@@H]2C[C@@H](O)CN2C(=O)[C@H]([C@@H](C)O)NC(=O)[C@H](CCCCN)NC(=O)[C@H](CCC(=O)O)NC(=O)[C@H](CC(N)=O)NC(=O)CNC(=O)[C@@H]2C[C@@H](O)CN2C(=O)[C@H](CC(N)=O)NC1=O [AFPep] (cyclo(EKT[Hyp]VN[Hyp]GN)) ) reads 21

----------
Assay: 8-day repeat-dose study, tolerability (blood chemistry, hematology, adverse events) in tumor-bearing dogs
Type: in vivo, dog
Details: Dog 3; Post: 30 min after last injection on day 8; 10 mg s.c. once daily for 8 days
Where a SMILES comes first, the peptide text is derived from it. [ ]: non-standard residue; d: D form. Hyp = O=C(O)[C@@H]1C[C@@H](O)CN1
QUANTITY_KIND: Calcium (mg/dL)
Numbers only here, please. The scale is mg/dL.

Field Calcium (entry CC(C)[C@@H]1NC(=O)[C@@H]2C[C@@H](O)CN2C(=O)[C@H]([C@@H](C)O)NC(=O)[C@H](CCCCN)NC(=O)[C@H](CCC(=O)O)NC(=O)[C@H](CC(N)=O)NC(=O)CNC(=O)[C@@H]2C[C@@H](O)CN2C(=O)[C@H](CC(N)=O)NC1=O [AFPep] (cyclo(EKT[Hyp]VN[Hyp]GN)) ) reads 9

----------
Assay: Pharmacokinetics in mice
Assay type: in vivo
Details: sc; mouse; 4 mg/kg; plasma LC/MS/MS
Where a SMILES comes first, the peptide text is derived from it. [ ]: non-standard residue; d: D form. Hyp = O=C(O)[C@@H]1C[C@@H](O)CN1
QUANTITY_KIND: AUC
Express the reported value numerically, then name its unit.

Field AUC (entry CC(C)[C@@H]1NC(=O)[C@@H]2C[C@@H](O)CN2C(=O)[C@H]([C@@H](C)O)NC(=O)[C@H](CCCCN)NC(=O)[C@H](CCC(=O)O)NC(=O)[C@H](CC(N)=O)NC(=O)CNC(=O)[C@@H]2C[C@@H](O)CN2C(=O)[C@H](CC(N)=O)NC1=O [AFPep] (cyclo(EKT[Hyp]VN[Hyp]GN)) ) reads 3450 ng·h/mL

----------
Assay: 8-day repeat-dose study, tolerability (blood chemistry, hematology, adverse events) in tumor-bearing dogs
Assay type: in vivo, dog
Conditions: Dog 2; Post: 30 min after last injection on day 8; 10 mg s.c. once daily for 8 days
Where a SMILES comes first, the peptide text is derived from it. [ ]: non-standard residue; d: D form. Hyp = O=C(O)[C@@H]1C[C@@H](O)CN1
QUANTITY_KIND: WBC

Field WBC (entry CC(C)[C@@H]1NC(=O)[C@@H]2C[C@@H](O)CN2C(=O)[C@H]([C@@H](C)O)NC(=O)[C@H](CCCCN)NC(=O)[C@H](CCC(=O)O)NC(=O)[C@H](CC(N)=O)NC(=O)CNC(=O)[C@@H]2C[C@@H](O)CN2C(=O)[C@H](CC(N)=O)NC1=O [AFPep] (cyclo(EKT[Hyp]VN[Hyp]GN)) ) reads 7 10^3/µL

Origin of measurements: paper PMC9913752
